Hello, the source for this data is patent EP4610269A1, in case you need it.

assayed.target: uPAR-expressing HEC-265 human endometrial adenocarcinoma cells (Homo sapiens, UniProt Q03405)
Sequence (Q03405 23-335): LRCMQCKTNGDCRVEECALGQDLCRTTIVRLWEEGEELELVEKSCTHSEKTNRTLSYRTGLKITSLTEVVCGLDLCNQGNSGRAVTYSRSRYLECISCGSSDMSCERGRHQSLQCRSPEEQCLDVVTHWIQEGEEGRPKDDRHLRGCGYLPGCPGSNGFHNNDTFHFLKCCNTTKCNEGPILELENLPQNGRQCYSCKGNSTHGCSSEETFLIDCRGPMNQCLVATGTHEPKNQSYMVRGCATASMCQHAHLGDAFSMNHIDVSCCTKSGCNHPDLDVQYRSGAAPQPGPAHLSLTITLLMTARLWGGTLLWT
pIC50: −log10 of the molar value. Where a SMILES comes first, the peptide text is derived from it. Bridges are numbered along the chain shown (N, C = ends). [ ]: non-standard residue; d: D form. The star is where a group is joined. DOTA = O=C(O)CN1CCN(CC(=O)O)CCN(CC(=O)*)CCN(CC(=O)O)CC1; Pro(cis-4-F) = O=C(O)[C@@H]1C[C@H](F)CN1; Hyp = O=C(O)[C@@H]1C[C@@H](O)CN1; dCit = NC(=O)NCCC[C@@H](N)C(=O)O; Pentanoyl(4-Me) = CC(C)CCC(=O)*; Cit = NC(=O)NCCC[C@H](N)C(=O)O; Butoxycarbonyl = CCCCOC(=O)*; hSer = N[C@@H](CCO)C(=O)O
Listed below: pIC50 values for each entry.

Give the reported value of pIC50 for this record: CCCCOC(=O)N[C@H]1CSSC[C@@H](C(N)=O)NC(=O)[C@H](CCO)NC(=O)[C@H]([C@@H](C)CC)NC(=O)[C@@H]2C[C@@H](O)CN2C(=O)[C@@H]2C[C@H](F)CN2C(=O)[C@H](Cc2ccccc2)NC(=O)[C@H](Cc2ccc(O)cc2)NC(=O)[C@H](CCCCNC(=O)CN2CCN(CC(=O)O)CCN(CC(=O)O)CCN(CC(=O)O)CC2)NC(=O)[C@H]([C@@H](C)O)NC1=O [UPAR-368] (Butoxycarbonyl-CTK(DOTA)YF[Pro(cis-4-F)][Hyp]I[hSer]C-NH2; disulfide 1-10)
≥ 8.00

Give the reported value of pIC50 for this record: CC[C@H](C)[C@@H]1NC(=O)[C@H](CCCNC(=N)N)NC(=O)[C@@H]2CCCN2C(=O)[C@H](Cc2ccccc2)NC(=O)[C@H](Cc2ccc(O)cc2)NC(=O)[C@H](CCCCNC(=O)CN2CCN(CC(=O)O)CCN(CC(=O)O)CCN(CC(=O)O)CC2)NC(=O)[C@H](CCCNC(N)=O)NC(=O)[C@@H](NC(=O)[C@H](CC(C)C)NC(=O)[C@H](CC(=O)O)NC(C)=O)CSSC[C@@H](C(N)=O)NC(=O)[C@H](CC(C)C)NC1=O [UPAR-423] (Ac-DLC[Cit]K(DOTA)YFPRILC-NH2; disulfide 3-12)
≥ 8.00

Give the reported value of pIC50 for this record: CC[C@H](C)[C@@H]1NC(=O)[C@@H](C)NC(=O)[C@@H]2CCCN2C(=O)[C@H](Cc2ccccc2)NC(=O)[C@H](Cc2ccc(O)cc2)NC(=O)[C@H](CCC(N)=O)NC(=O)[C@@H](CCCNC(N)=O)NC(=O)[C@@H](NC(=O)CCC(C)C)CSSC[C@@H](C(N)=O)NC(=O)[C@H](CC(C)C)NC1=O [UPAR-364] ({Pentanoyl(4-Me)}-C[dCit]QYFP[dA]ILC-NH2; disulfide 1-10)
≤ 6.90

----------
test.description: Plasma stability assay (mouse plasma)
Type: in vitro ADME
run.conditions: mouse plasma (sodium citrate 3.7%), 37°C, LC-MS quantification, read-out: % intact compound remaining after 6h incubation Mouse plasma
*1 amine or outer side, *2 acyl side, *3 side chain or, on linkers, in order; H or OH if unused. Where a SMILES comes first, the peptide text is derived from it. Bridges are numbered along the chain shown (N, C = ends). [ ]: non-standard residue; d: D form. The star is where a group is joined. Pro(trans-4-NH2) = O=C([C@@H]1C[C@@H](N[*:3])CN1[*:1])[*:2]; DOTA = O=C(O)CN1CCN(CC(=O)O)CCN(CC(=O)*)CCN(CC(=O)O)CC1; Pro(cis-4-F) = O=C(O)[C@@H]1C[C@H](F)CN1; Dopa = N[C@@H](Cc1ccc(O)c(O)c1)C(=O)O; Hyp = O=C(O)[C@@H]1C[C@@H](O)CN1; hArg = N=C(N)NCCCC[C@H](N)C(=O)O; Pentanoyl(4-Me) = CC(C)CCC(=O)*; Cit = NC(=O)NCCC[C@H](N)C(=O)O; Butoxycarbonyl = CCCCOC(=O)*; Nva = CCC[C@H](N)C(=O)O; Pentanoyl = CCCCC(=O)*
So basically: is remaining at 6 h, 9.8 µM under 90%? Then TRUE. Not under? Then FALSE.

CCCCOC(=O)N[C@H]1CSSC[C@@H](C(N)=O)NC(=O)[C@H](CCC)NC(=O)[C@H]([C@@H](C)CC)NC(=O)[C@@H]2C[C@@H](O)CN2C(=O)[C@@H]2C[C@H](F)CN2C(=O)[C@H](Cc2ccccc2)NC(=O)[C@H](Cc2ccc(O)c(O)c2)NC(=O)[C@H](CCCCNC(=O)CN2CCN(CC(=O)O)CCN(CC(=O)O)CCN(CC(=O)O)CC2)NC(=O)[C@H]([C@@H](C)O)NC1=O [UPAR-249] (Butoxycarbonyl-CTK(DOTA)[Dopa]F[Pro(cis-4-F)][Hyp]I[Nva]C-NH2; disulfide 1-10) :: TRUE
CC[C@H](C)[C@@H]1NC(=O)[C@@H](C)NC(=O)[C@@H]2CCCN2C(=O)[C@H](Cc2ccccc2)NC(=O)[C@H](Cc2ccc(O)cc2)NC(=O)[C@H](CCC(N)=O)NC(=O)[C@H](CCCNC(N)=O)NC(=O)[C@@H](NC(=O)[C@H](CC(C)C)NC(C)=O)CSSC[C@@H](C(N)=O)NC(=O)[C@H](CC(C)C)NC1=O [UPAR-418] (Ac-LC[Cit]QYFP[dA]ILC-NH2; disulfide 2-11) :: TRUE
CCCCOC(=O)N[C@H]1CSSC[C@@H](C(N)=O)NC(=O)[C@H](CCC)NC(=O)[C@H]([C@@H](C)CC)NC(=O)[C@@H]2C[C@@H](O)CN2C(=O)[C@@H]2CCCN2C(=O)[C@H](Cc2ccccc2)NC(=O)[C@H](Cc2ccc(O)cc2)NC(=O)[C@H](CCCCNC(=O)CN2CCN(CC(=O)O)CCN(CC(=O)O)CCN(CC(=O)O)CC2)NC(=O)[C@H](CCCNC(N)=O)NC1=O [UPAR-275] (Butoxycarbonyl-C[Cit]K(DOTA)YFP[Hyp]I[Nva]C-NH2; disulfide 1-10) :: TRUE
CC[C@H](C)[C@@H]1NC(=O)[C@@H](C)NC(=O)[C@@H]2CCCN2C(=O)[C@H](Cc2ccccc2)NC(=O)[C@H](Cc2ccc(O)cc2)NC(=O)[C@H](CCCCNC(=O)CN2CCN(CC(=O)O)CCN(CC(=O)O)CCN(CC(=O)O)CC2)NC(=O)[C@H](CCCNC(N)=O)NC(=O)[C@@H](NC(=O)[C@H](CC(C)C)NC(=O)[C@H](CC(=O)O)NC(C)=O)CSSC[C@@H](C(N)=O)NC(=O)[C@H](CC(C)C)NC1=O [UPAR-189] (Ac-DLC[Cit]K(DOTA)YFP[dA]ILC-NH2; disulfide 3-12) :: FALSE
CCCCC(=O)N[C@H]1CSSC[C@@H](C(N)=O)NC(=O)[C@H](CCC)NC(=O)[C@H]([C@@H](C)CC)NC(=O)[C@@H]2C[C@@H](O)CN2C(=O)[C@@H]2CCCN2C(=O)[C@H](Cc2ccccc2)NC(=O)[C@H](Cc2ccc(O)cc2)NC(=O)[C@H](CCCCNC(=O)CN2CCN(CC(=O)O)CCN(CC(=O)O)CCN(CC(=O)O)CC2)NC(=O)[C@H](CCCCNC(=N)N)NC1=O [UPAR-278] (Pentanoyl-C[hArg]K(DOTA)YFP[Hyp]I[Nva]C-NH2; disulfide 1-10) :: TRUE

Dear reviewer, please state whether CC[C@H](C)[C@@H]1NC(=O)[C@@H]2C[C@@H](NC(=O)CN3CCN(CC(=O)O)CCN(CC(=O)O)CCN(CC(=O)O)CC3)CN2C(=O)[C@@H]2CCCN2C(=O)[C@H](Cc2ccccc2)NC(=O)[C@H](Cc2ccc(O)cc2)NC(=O)[C@H](CCC(N)=O)NC(=O)[C@H](CCCNC(N)=O)NC(=O)[C@@H](NC(=O)CCC(C)C)CSSC[C@@H](C(N)=O)NC(=O)[C@H](CC(C)C)NC1=O [UPAR-389] ({Pentanoyl(4-Me)}-C[Cit]QYFP[Pro(trans-4-NH2)](DOTA)ILC-NH2; disulfide 1-10) has remaining at 6 h, 9.8 µM strictly beneath 90%.
FALSE

Dear reviewer, please state whether CC[C@H](C)[C@@H]1NC(=O)[C@@H]2CCCN2C(=O)[C@@H]2CCCN2C(=O)[C@H](Cc2ccccc2)NC(=O)[C@H](Cc2ccc(O)cc2)NC(=O)[C@H](CCCCNC(=O)CN2CCN(CC(=O)O)CCN(CC(=O)O)CCN(CC(=O)O)CC2)NC(=O)[C@H](CCCNC(N)=O)NC(=O)[C@@H](NC(=O)CCC(C)C)CSSC[C@@H](C(N)=O)NC(=O)[C@H](CC(C)C)NC1=O [UPAR-382] ({Pentanoyl(4-Me)}-C[Cit]K(DOTA)YFPPILC-NH2; disulfide 1-10) has remaining at 6 h, 9.8 µM strictly beneath 90%.
TRUE
